test system: Neuro-2a; assay: neurite formation score, plate-normalized to DMSO control mean 5.04 (score (0-8 scale)); higher = more or longer neurites; conditions: 1 µM
Where a name gives a salt, the structure may show the parent alone.
property.label: neurite formation score

# molecule, system.tested, property.label, reported.measurement
measured = [
    ("Cn1sc(=O)n(Cc2ccccc2)c1=O", "Neuro-2a", "neurite formation score", 2.96),
    ("CO[C@H]1C[C@@H]2CC[C@@H](C)[C@@](O)(O2)C(=O)C(=O)N2CCCC[C@H]2C(=O)O[C@H]([C@H](C)C[C@@H]2CC[C@@H](OP(C)(C)=O)[C@H](OC)C2)CC(=O)[C@H](C)/C=C(\\C)[C@@H](O)[C@@H](OC)C(=O)[C@H](C)C[C@H](C)/C=C/C=C/C=C/1C", "Neuro-2a", "neurite formation score", 4.21),
    ("C[C@@H](Oc1ccc2[nH]nc(/C=C/c3cnn(CCO)c3)c2c1)c1c(Cl)cncc1Cl", "Neuro-2a", "neurite formation score", 1.02),
    ("C=CC(=O)Nc1cccc(Nc2nc(Nc3ccc(N4CCN(C(C)=O)CC4)cc3OC)ncc2C(F)(F)F)c1", "Neuro-2a", "neurite formation score", 4.24),
    ("O=S(=O)(c1cccc2cnccc12)N1CCCNCC1 [Fasudil (HA-1077) HCl]", "Neuro-2a", "neurite formation score", 4.24),
    ("O=C(NCCO)c1cccc(-c2cc(Nc3ccc(OC(F)(F)F)cc3)ncn2)c1", "Neuro-2a", "neurite formation score", 5.63),
    ("O=c1cc(N2CCOCC2)oc2c1ccc1ccccc12", "Neuro-2a", "neurite formation score", 4.8),
    ("Cc1ncc(-c2ccnc(Nc3ccc(S(C)(=O)=O)cc3)n2)n1C(C)C", "Neuro-2a", "neurite formation score", 4.24),
    ("CNC(=O)Nc1ccc(-c2nc(N3CC4CCC(C3)O4)c3cnn(C4CCC5(CC4)OCCO5)c3n2)cc1", "Neuro-2a", "neurite formation score", 3.54),
    ("Cc1cc(N2CCOCC2)cc2[nH]c(-c3c(NC[C@@H](O)c4cccc(Cl)c4)cc[nH]c3=O)nc12", "Neuro-2a", "neurite formation score", 3.57),
    ("Cn1cnc2c(F)c(Nc3ccc(Br)cc3Cl)c(C(=O)NOCCO)cc21 [AZD6244 (Selumetinib)]", "Neuro-2a", "neurite formation score", 4.24),
    ("CC[C@@H]1C(=O)N(C)c2cnc(Nc3ccc(C(=O)NC4CCN(C)CC4)cc3OC)nc2N1C1CCCC1", "Neuro-2a", "neurite formation score", 5.02),
    ("CN(C)CCCn1cc(C2=C(c3c[nH]c4ccccc34)C(=O)NC2=O)c2ccccc21", "Neuro-2a", "neurite formation score", 5.24),
    ("CCc1ccc(/C=C2/SC(=S)NC2=O)cc1", "Neuro-2a", "neurite formation score", 5.57),
    ("CCCCCCCCCCCCCCCCCC(=O)OC[C@H](CO)OC(=O)CCCCCCCCCCCCCCCCC", "Neuro-2a", "neurite formation score", 4.54),
    ("c1cncc(CN2CCC(n3ncc4c(N5CCOCC5)nc(-c5ccc6[nH]ccc6c5)nc43)CC2)c1", "Neuro-2a", "neurite formation score", 1.54),
    ("Cn1cc(/C=C2\\C(=O)Nc3cccnc32)c2ccccc21", "Neuro-2a", "neurite formation score", 4.54),
    ("C=CC(=O)Nc1cccc(Nc2nc(Nc3ccc(NC4CN(CCF)C4)cc3OC)ncc2C(F)(F)F)c1", "Neuro-2a", "neurite formation score", 4.88),
    ("CN1CCN(Cc2ccc(-c3cnc4[nH]cc(-c5ccc6[nH]ccc6c5)c4c3)cc2)CC1", "Neuro-2a", "neurite formation score", 4.54),
    ("O=C(/C=C/c1ccc(O)c(O)c1)c1ccc(O)cc1O", "Neuro-2a", "neurite formation score", 5.24),
    ("CCN(CC)CCCCNc1ncc2cc(-c3cc(OC)cc(OC)c3)c(NC(=O)NC(C)(C)C)nc2n1", "Neuro-2a", "neurite formation score", 4.24),
    ("NC(=O)c1ccc(-c2nc(-c3ccc4c(c3)OCCO4)c(-c3ccccn3)[nH]2)cc1", "Neuro-2a", "neurite formation score", 4.36),
    ("O=C(NCCCNc1nc(Nc2cccc(CN3CCOCC3)c2)ncc1C1CC1)C1CCC1", "Neuro-2a", "neurite formation score", 5.02),
    ("CNC(=O)c1cc(Oc2ccc(NC(=O)c3cccc(C(F)(F)F)c3)cc2)ccn1", "Neuro-2a", "neurite formation score", 3.57),
    ("O=C(c1cccc(Cl)c1F)N1CCN(Cc2cccc(Nc3nccs3)n2)CC1", "Neuro-2a", "neurite formation score", 4.14),
    ("Nc1cccc(-c2cc3c(Oc4cccc(O)c4)ncnc3[nH]2)c1", "Neuro-2a", "neurite formation score", 1.88),
    ("O=c1cc(-c2ccccc2)oc2c(O)c(O)ccc12 [7,8-Dihydroxyflavone]", "Neuro-2a", "neurite formation score", 4.21),
    ("O=C(COc1ccc(Cl)cc1)NC1CCC(NC(=O)COc2ccc(Cl)cc2)CC1 (stereo not drawn) [ISRIB (trans-isomer)]", "Neuro-2a", "neurite formation score", 4.54),
    ("COc1cc(Nc2ncc(F)c(Nc3ccc4c(n3)NC(=O)C(C)(C)O4)n2)cc(OC)c1OC [R406 (free base)]", "Neuro-2a", "neurite formation score", 3.9),
    ("Nc1nc(Nc2ccc3c(c2)CCC(N2CCCC2)CC3)nn1-c1cc2c(nn1)-c1ccccc1CCC2 (stereo not drawn)", "Neuro-2a", "neurite formation score", 4.24),
    ("CC(C)(C)n1nc(-c2ccc(Cl)cc2)c2c(N)ncnc21", "Neuro-2a", "neurite formation score", 4.24),
    ("N#CC1(c2ccc(NC(=O)c3cccnc3NCc3ccncc3)cc2)CCCC1", "Neuro-2a", "neurite formation score", 4.54),
    ("Cc1ccc(NC(=O)c2cccc(N(C)C)c2)cc1NC(=O)c1ccc(O)cc1", "Neuro-2a", "neurite formation score", 5.63),
    ("COc1ccc(-c2cnc3c(-c4cccc5ncccc45)cnn3c2)cc1", "Neuro-2a", "neurite formation score", 3.88),
    ("COc1cc(C(=O)N2CCC(N3CCN(C)CC3)CC2)ccc1Nc1ncc2c(n1)N(C)c1ccccc1C(=O)N2C", "Neuro-2a", "neurite formation score", 4.36),
    ("COc1cc(Nc2ncc3c(n2)-c2ccc(Cl)cc2C(c2c(F)cccc2OC)=NC3)ccc1C(=O)O", "Neuro-2a", "neurite formation score", 4.36),
    ("COc1ccc(C(=O)Nc2sc3c(c2C(N)=O)CCCC3)cc1OC", "Neuro-2a", "neurite formation score", 4.57),
    ("CN(C)C/C=C/C(=O)Nc1cc2c(Nc3ccc(F)c(Cl)c3)ncnc2cc1O[C@H]1CCOC1 [Afatinib dimaleate]", "Neuro-2a", "neurite formation score", 4.91),
]
